residual activity reference
target: AMP-activated protein kinase, AMPK (Homo sapiens) (UniProt P54646+O43741+P54619+Q9UGJ0+Q9Y478+Q13131+Q9UGI9)
condition_context: at 1 µM
measured_quantity: residual activity (%)

{"columns": ["smiles_str", "result"],
 "data": [
  ["CCC(=O)Nc1ccc2ncnc(Nc3cccc(Br)c3)c2c1", 105],
  ["Cc1ccc(NC2=CC(=O)c3sc(C)nc3C2=O)cc1", 94],
  ["O=C1NC(=O)/C(=C\\c2ccc3nccnc3c2)S1", 108],
  ["Nc1nc(Nc2ccc(S(N)(=O)=O)cc2)nn1C(=S)Nc1c(F)cccc1F", -3],
  ["Cc1ccc(S(=O)(=O)/C=C/C#N)cc1", 87],
  ["Oc1ccc(Nc2nc(-c3ccc(Cl)cc3)cs2)cc1", 119],
  ["O=c1c2ccccc2[nH]c(=S)n1CCN1CCC(=C(c2ccc(F)cc2)c2ccc(F)cc2)CC1", 97],
  ["COc1cc2ncnc(Nc3ccc(O)c(Br)c3)c2cc1OC", 93],
  ["O=C1NC(=O)/C(=C/c2ccc3c(c2)OC(F)(F)O3)S1", 96],
  ["COc1ccc(C(=O)Nc2sc3c(c2C(N)=O)CCCC3)cc1OC", 93],
  ["N#Cc1cnc2cnc(NCc3cccnc3)cc2c1Nc1ccc(F)c(Cl)c1", -5],
  ["CNc1cc2c(Nc3cccc(Br)c3)ncnc2cn1", 91],
  ["O=c1cc(-c2cccc3c2Sc2ccccc2S3)oc(N2CCOCC2)c1", 102],
  ["N#CCCc1ccc2c(c1)-c1[nH]c3ccc([N+](=O)[O-])cc3c1CC(=O)N2", 27],
  ["Cc1cncc2cccc(S(=O)(=O)N3CCCN(C(=O)CN)C[C@H]3C)c12", 97],
  ["Cn1nc2c3c(cccc31)C(=O)c1ccccc1-2", 81],
  ["CN(C)CCCn1cc(C2=C(c3c[nH]c4ccccc34)C(=O)NC2=O)c2ccccc21", 26],
  ["CC[n+]1c(/C=C/N(C)c2ccccc2)n(-c2ccccc2)c2ccc(-c3nc4ccccc4s3)cc21", 116],
  ["Nc1n[nH]c2nnc(-c3c(-c4ccccc4)nn4ccccc34)cc12", 92],
  ["COc1ccc(S(=O)(=O)N(CCO)c2ccccc2CN(C)C/C=C/c2ccc(Cl)cc2)cc1", 99],
  ["CC(C)n1cnc2c(NCc3ccccc3)nc(NCCCO)nc21", 99],
  ["CC(=O)O/N=C1\\C(=C2\\C(=O)Nc3cc(Br)ccc32)Nc2ccccc21", 46],
  ["NC(=O)c1ccc2[nH]c(-c3ccc(Oc4ccc(Cl)cc4)cc3)nc2c1", 71],
  ["c1ccc(-c2n[nH]c3c2oc2ccccc23)cc1", 91],
  ["Cc1nc2cc3nc(-c4cccs4)cnc3cc2n1C", 118],
  ["Nc1ccc2ncnc(NCCc3ccc(Oc4ccccc4)cc3)c2c1", 65],
  ["COc1cc2ncnc(Nc3ccc(Oc4ccccc4)cc3)c2cc1OC", 94],
  ["N#CC(C#N)=C(N)/C(C#N)=C/c1ccc(O)cc1", 100],
  ["Cc1nc(-c2ccccc2)c(-c2ccncc2)o1", 114],
  ["Oc1n[nH]c2nnc(-c3c(-c4ccccc4)nn4ccccc34)cc12", 97],
  ["CC(C)n1cnc2/c(=N/c3cccc(Cl)c3)nc(NCCO)[nH]c21", 88],
  ["Nc1cccc(-c2cc3c(Oc4cccc(O)c4)ncnc3[nH]2)c1", 54],
  ["O=C(O)c1ccc2c3c1cccc3c(=O)n1c3ccccc3nc21", 37],
  ["O=Nc1c(-c2c(O)[nH]c3ccccc23)[nH]c2ccccc12", 1],
  ["O=C(Nc1cccc(Nc2nccc(Nc3cccc(C(F)(F)F)c3)n2)c1)C1CC1", 88],
  ["N#C/C(=C(\\N)Sc1ccc(N)cc1)c1ccccc1C(F)(F)F", 77],
  ["CC#CC(=O)Nc1cc2c(Nc3ccc(F)c(Cl)c3)ncnc2cn1", 79],
  ["O=C1c2ccccc2-[n+]2ccc3c([nH]c4ccccc43)c21", 101]
]}
